target-of-assay: T1, human IgG1 (human, UniProt P01857-1 1-330 = IgG part)
T1 construct: Calbiochem; human plasma IgG1 in anisotropy studies, myeloma-derived (cat. 400120) in batch/column studies; also called hIgG1
T1 sequence (P01857 other isoform, or with tags, fused parts or gaps): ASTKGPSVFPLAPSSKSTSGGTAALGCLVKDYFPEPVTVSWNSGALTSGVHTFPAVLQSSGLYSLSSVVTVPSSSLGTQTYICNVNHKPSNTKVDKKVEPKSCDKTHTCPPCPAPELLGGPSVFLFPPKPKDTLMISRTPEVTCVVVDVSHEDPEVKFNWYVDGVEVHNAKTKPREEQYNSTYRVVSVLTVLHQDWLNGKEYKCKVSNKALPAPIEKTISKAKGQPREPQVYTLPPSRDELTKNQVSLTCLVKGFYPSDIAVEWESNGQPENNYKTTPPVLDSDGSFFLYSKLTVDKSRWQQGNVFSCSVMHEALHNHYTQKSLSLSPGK
assay-text: anisotropy; pH 4.0 + salt
measurement-kind: Kd

Exercise: Reported Kd, binder Ac-AGTYWCTFWELPCDPAPGPEGGGK-NH2 (cysteine pairing not given here, immobilised in batch/column assays) [DX404] : ____
Solution: 2000 nM
